The following molecules are listed with their measured TGI values.
- Test system: SF-268 CNS
- PROTOCOL: NCI tumour cell line growth inhibition, 48 h
EXPERIMENTAL ENDPOINT: TGI

Nc1nc(N)c2c(n1)NC(c1ccc(Cl)cc1)C1CCc3ccccc3C1=N2 (configuration not stated)
26.9 µM
COc1ccc2nc3c(nc2c1)C(C)(C)C=C3c1ccc(Br)cc1
> 100 µM
O=C(C#Cc1ccccc1)Nc1ccccc1CC(c1c[nH]c2ccccc12)c1c[nH]c2ccccc12
> 100 µM
CC#CC#C/C=C1/C=CC2(CCCCO2)O1 (configuration not stated)
> 100 µM
COc1ccc(/C=C2\CCC(C)(CN(C)C)C2=O)cc1Br (configuration not stated)
23.3 µM
CCN(CC(O)COc1ccc2c(c1)[n+]([O-])nc(N)[n+]2[O-])C(C)=O (configuration not stated)
> 100 µM
CC1=NN(c2ccccc2)C(=O)C1N=Nc1ccc(Br)cc1C (configuration not stated)
> 100 µM
COc1ccc(-c2oc(C=Nc3ccccc3)c([N+](=O)[O-])c2-c2ccc(OC)c(OC)c2)cc1OC
> 100 µM
Clc1cccc(C=NC23CC4CC(CC(C4)C2)C3)c1Cl
> 10 µM
C[C@H]1O[C@@H](O[C@H]2[C@@H](O)C[C@H](O[C@H]3[C@@H](O)C[C@H](O[C@H]4CC[C@]5(C)C6CC[C@]7(C)[C@@H](C8=CC(=O)OC8)CC[C@]7(O)C6CC[C@@H]5C4)O[C@@H]3C)O[C@@H]2C)C[C@H](O)[C@@H]1O (some centres not stated)
0.0578 µM
C#CCN1C(=O)CN2C(Cl)(Cl)C2(c2ccccc2)c2cc(Cl)ccc21 (configuration not stated)
> 100 µM
N#Cc1cc([N+](=O)[O-])ccc1NC(=O)C(=O)Nn1c(=S)[nH]c2ccccc2c1=O
> 100 µM
Cc1cc2nc3c(C)c4ccccc4c(C)n3c2cc1C
> 10 µM
OCC1OC(n2cnc3cc(Cl)c(Cl)cc32)C(O)C1O (configuration not stated)
> 87.9 µM
Nc1ccc(Oc2ccc(C34CC5CC(C3)CC(c3ccc(Oc6ccc(N)c(O)c6)cc3)(C5)C4)cc2)cc1O
2.9 µM
NS(=O)(=O)c1ccc(NC(=O)Nc2cccc3ccccc23)cc1
39.3 µM
Nc1ncnc2c1ncn2Cc1ccc(CCl)cc1
57.9 µM
CCN1C(=O)N(CC)C2C1NN=c1s/c(=C\c3ccc(Br)cc3)c(=O)n12 (configuration not stated)
> 100 µM
Cn1c(SCc2ccc([N+](=O)[O-])cc2)nnc1C12CC3CC(CC(C3)C1)C2
> 10 µM
COc1ccc(C2[C@@H](Cl)C(=O)N2c2ccc(OC)cc2)cc1 (some centres not stated)
> 100 µM
OCC1OC(NO)C(O)C(O)C1O (configuration not stated)
> 100 µM
COc1c(C(=O)CC2c3c(cc4oc(C)cc(=O)c4c3OC)OC(=N)C2c2nc3ccccc3[nH]2)c(O)c(OC)c2occc12 (configuration not stated)
> 100 µM
COC1C[C@H](O[C@@H]2C[C@H](O[C@@H]3C[C@H](O[C@@H]4C(=O)c5c(cc6cc(O[C@H]7C[C@@H](O[C@H]8C[C@@H](O)[C@H](O)C(C)O8)[C@H](O)C(C)O7)c(C)c(O)c6c5O)C[C@H]4C(OC)C(=O)[C@@H](O)[C@@H](C)O)OC(C)[C@H]3O)OC(C)[C@@H]2O)OC(C)[C@@H]1O (some centres not stated)
> 32.5 µM
Nc1nc2c(nnn2C2C=C(CO)C(O)C2O)c(=O)[nH]1 (configuration not stated)
> 100 µM
CC(NC(=O)C(NC(=O)C(NC(=O)C(F)(F)F)C(C)C)C(C)C)C(=O)Oc1c(Cl)c(Cl)c(Cl)c(Cl)c1Cl (configuration not stated)
> 100 µM
O=S1(=O)OCCOS(=O)(=O)C1C1c2ccccc2-c2ccccc21
> 100 µM
COc1cccc(/C=C/C(=O)c2cc3c(N)c(C(=O)Nc4ccccc4)sc3nc2C)c1
5.82 µM
COC(=O)[C@@]1(Cc2ccc(OC(C)=O)cc2)Cc2cc3ccccc3n2N1
> 100 µM
O=C(Nc1n[nH]c2cc(-c3ccc(F)cc3)ccc12)C1CC1
> 25 µM
CCN(CC)CCNC(=O)C1COc2ccc(-c3cc(=O)c4ccccc4o3)cc2O1 (configuration not stated)
55.9 µM
C=c1c2ccccc2oc2nc3[nH]c(N)c(C#N)c(N)c3c(=N)c12
70.9 µM
O=C(Nc1ccn(C2CCC(COC(c3ccccc3)(c3ccccc3)c3ccccc3)O2)c(=O)n1)c1ccccc1 (configuration not stated)
17.4 µM
